Hi there, I'd appreciate the recorded TGI for every entry that follows.
Tested on: SNB-19 CNS
Assay: NCI tumour cell line growth inhibition, 48 h

Item under review: Fc1cccc(COc2ccc(Nc3ncnc4onc(-c5ccccc5)c34)cc2)c1 . Reported TGI? > 100 µM

Try this molecule next: Cc1nc(OCc2ccccc2)c2ncn(CCO)c2n1 > 100 µM

Try this molecule next: CC(C)(C)OC(=O)NCC(CNC(=O)OC(C)(C)C)C(N)=O > 100 µM

Try this molecule next: Cc1ccc2c(C(C[N+](=O)[O-])c3ccccc3)c(-c3ccccc3)[nH]c2c1 (configuration not stated) > 95 µM

Try this molecule next: NS(=O)(=O)c1ccc(NC(=O)N/N=C/c2ccccc2[N+](=O)[O-])cc1 > 100 µM

Try this molecule next: CC1=C([Te]c2ccccc2)C(=O)c2ccccc2C1=O 2.56 µM

Try this molecule next: CC1(C)N=C(N)N=C(N)N1c1ccc(CNC(=O)Nc2ccc(S(=O)(=O)F)c(Cl)c2)c(Cl)c1 > 100 µM

Try this molecule next: O=C(O)c1cccc(S(=O)(=O)NCCO)c1 > 100 µM

Try this molecule next: CC(=O)OCc1c(O)c2c([nH]c1=O)CCc1ccccc1-2 > 350 µM

Try this molecule next: C(=N\c1nc2cc3sc(/N=C/c4ccccc4)nc3cc2s1)/c1ccccc1 > 100 µM

Try this molecule next: O=c1[nH]c(NCc2cccnc2)nc2nc[nH]c12 > 100 µM

Try this molecule next: COC(NC(=O)Nc1ccc(C)cc1)(C(F)(F)F)C(F)(F)F 87.2 µM

Try this molecule next: O=[N+]([O-])c1ncc(N(CCO)CCO)s1 > 100 µM

Try this molecule next: O=c1[nH]c(Nc2ccc(Br)c(C(F)(F)F)c2)nc2nc[nH]c12 > 100 µM

Try this molecule next: CCOP(=O)(CC(=O)C1CC1)OCC > 100 µM

Try this molecule next: O=C1C2CCN(CC2)C1CN1CCOCC1 (configuration not stated) 32.6 µM

Try this molecule next: COC(=O)C1CCC(=O)N1C(c1ccc(OC)cc1)c1cc(OC)c(OC)c(OC)c1 (configuration not stated) > 100 µM

Try this molecule next: O=[N+]([O-])c1ccc(-c2csc(N=Nc3c(O)[nH]c4ccccc34)n2)cc1 > 100 µM

Try this molecule next: COc1cc(CCC[P+](c2ccccc2)(c2ccccc2)c2ccccc2)c(OC)c2c1OCO2 10.9 µM

Try this molecule next: CC(C)(C)C1=C(Br)C(F)(C(C)(C)C)OP1(=O)c1ccccc1 (configuration not stated) 30.6 µM

Try this molecule next: C#C[C@]1(O)CC[C@H]2[C@@H]3CCC4=C/C(=N\OCCN5CCCCC5)CC[C@]4(C)[C@H]3CC[C@@]21C 19.1 µM

Try this molecule next: COC(=O)C(Cc1c[nH]c2ccccc12)NC(=O)C(Cc1cnc[nH]1)NC(=O)C1CCC(=O)N1C(=O)OCc1ccccc1 (configuration not stated) > 100 µM

###

Test system: BT-549 breast
Test: NCI tumour cell line growth inhibition, 48 h; in the data active means GI50 below about 0.43 µM; inactive means the rest
Just give me one of these, please: active, inactive

Given Cc1cc2c(F)c(Oc3ncnc(Nc4ccc(N5C[C@@H](C)N[C@@H](C)C5)cc4)c3C#N)cc(F)c2[nH]1 , state the outcome it received in this test. inactive

Try this compound next: COc1cc(-n2ccnc2-c2ccc3ccccc3c2)cc(OC)c1OC active

Try this compound next: COc1ccc2cc(-c3cnc4nonc4n3)ccc2c1 inactive

Try this compound next: Cc1ccc2c(C(C[N+](=O)[O-])c3ccccc3)c(-c3ccccc3)[nH]c2c1 (configuration not stated) inactive

Try this compound next: COc1ccccc1C#Cc1ccccc1C#Cc1ccc(OCCCCCCOc2ccccc2C#Cc2ccccc2C#Cc2ccccc2OC)cc1 inactive

Try this compound next: Fc1cccc(COc2ccc(Nc3ncnc4onc(-c5ccccc5)c34)cc2)c1 active

Try this compound next: CC(=O)O.CN1[CH-]N(Cc2ccc(C#N)cc2)c2ccccc21.[Ag+] inactive

Try this compound next: O=C1c2c(c(=O)[nH]c3ccccc23)[C@H](c2ccccc2)[C@@H]2CCCN12 inactive

Try this compound next: CCN1CCN(CCNc2nccc(-c3c(-c4ccc(F)c(O)c4)nc4occn34)n2)S1(=O)=O inactive

Try this compound next: CC1SC(c2ccccc2Cl)N(NC(=O)C(O)c2ccccc2)C1=O (configuration not stated) inactive

Try this compound next: NCCCCC(NC(=O)C(N)CCCN=C(N)N)C(=O)NC(CCCCN)C(=O)NC(CCCN=C(N)N)C(=O)NC(CCCN=C(N)N)C(=O)NC(CCC(N)=O)C(=O)NC(CCCN=C(N)N)C(=O)NC(CCCN=C(N)N)C(=O)NC(CCCN=C(N)N)C(=O)NCC(=O)NCC(=O)O (configuration not stated) inactive

Try this compound next: Nc1ncc(-c2ccc3ncnc(Nc4cccc(Cl)c4)c3c2)cn1 active

###

System: HS 578T breast
Experiment: NCI tumour cell line growth inhibition, 48 h
Endpoint label: GI50

Item under review: COc1ccc2cc(-c3cnc4nonc4n3)ccc2c1 . Reported GI50? 1.23 µM

Try this compound next: O=C1c2c(c(=O)[nH]c3ccccc23)[C@H](c2ccccc2)[C@@H]2CCCN12 2.89 µM

Try this compound next: FC1(F)ON2CCc3ccccc3C2[C@H]1c1ccccc1 (stereo partly specified) 45.9 µM

Try this compound next: Cc1ccc2c(C(C[N+](=O)[O-])c3ccccc3)c(-c3ccccc3)[nH]c2c1 (stereo unspecified) 16.8 µM

Try this compound next: C(=N\Nc1ncc(-c2cc3cc4c(cc3o2)OCO4)s1)/c1ccco1 2.74 µM

Try this compound next: CCSC[C@@H]1C[C@](O)(c2ccc(Cl)cc2)[C@@H](c2ccc(Cl)cc2)O1 18 µM

###

System: NCI-H23 lung
Experiment: NCI tumour cell line growth inhibition, 48 h
Endpoint label: GI50

Item under review: Cc1cc2c(F)c(Oc3ncnc(Nc4ccc(N5C[C@@H](C)N[C@@H](C)C5)cc4)c3C#N)cc(F)c2[nH]1 . Reported GI50? 2.44 µM

Try this molecule next: COC[C@H](NC(=O)c1cnc(C)s1)C(=O)N[C@@H](COC)C(=O)N[C@@H](Cc1ccccc1)C(=O)[C@@]1(C)CO1 36.6 µM

Try this molecule next: Cc1c(Cn2c(C)nc3c(C(=O)O)cc(N4CCOCC4)cc32)cccc1C(F)(F)F 81.5 µM

Try this molecule next: COc1ccc2c(c1)c(-c1nc(-c3cn(C)c4ccncc34)cs1)cn2C 1.81 µM

Try this molecule next: COc1ccc2cc(-c3cnc4nonc4n3)ccc2c1 4.49 µM

Try this molecule next: COc1ccc2c(c1)CCC1C2CC[C@@]2(C)C1CC[C@@H]2NC(=O)Cc1ccc(O)c(O)c1 (stereo partly specified) 11.9 µM

Try this molecule next: Cc1ccc(CNc2ccc3nc(CCC4CCCCC4)[nH]c3c2)cc1 2.1 µM

Try this molecule next: CSc1ccc(C2=NN(C(C)=O)C(c3ccc(-c4cc(Cl)c(Cl)cc4Cl)o3)C2)cc1 (stereo unspecified) 15.4 µM

Try this molecule next: CCN1CCN(CCNc2nccc(-c3c(-c4ccc(F)c(O)c4)nc4occn34)n2)S1(=O)=O 4.12 µM

Try this molecule next: COc1cc2nc(Nc3cccc(Cl)c3)nc(N)c2cc1OC 14.2 µM

Try this molecule next: COc1ccc(Nc2nc(NCCNc3ccnc4cc(Cl)ccc34)nc(N3CCOCC3)n2)cc1 13.7 µM

###

System: SR leukemia
Assay: NCI tumour cell line growth inhibition, 48 h
Hi there, I'd appreciate the recorded TGI for every entry that follows.

Item under review: O=c1onc2n1-c1ccc(Cl)cc1C(=S)N1CSCC21 (centres undefined) . Reported TGI? 48.1 µM

Try this compound next: Cc1ccc(S(=O)(=O)ON2C(=O)c3cccc4cc([N+](=O)[O-])cc(c34)C2=O)cc1 > 100 µM

Try this compound next: CN1CCC2(CC1)SSC1(CCN(C)CC1)S2 > 100 µM

Try this compound next: CC#Cc1c(O)c2c(c(O)c1C#CC)C(=O)c1ccccc1C2=O > 100 µM

Try this compound next: O=S1(=O)c2ccccc2N(O)C2=NCCN21 > 100 µM

Try this compound next: Cc1ccc(CNc2ccc3nc(CCC4CCCCC4)[nH]c3c2)cc1 8.74 µM

Try this compound next: COc1ccc(C(=O)/C=C/c2ccc(OCCCCCCCCCCOc3ccc(/C=C/C(=O)c4ccc(OC)cc4)cc3)cc2)cc1 > 100 µM

Try this compound next: COC(NC(=O)Nc1ccc(C)cc1)(C(F)(F)F)C(F)(F)F > 100 µM

Try this compound next: COc1cc(C2C=C(c3ccccc3)Oc3cc4c(cc32)OCO4)cc(OC)c1OC (centres undefined) > 100 µM
